// provenance: paper PMC6409085

# SYSTEM NAME: SfurOBP2 (Sogatella furcifera)
ENDPOINT NAME: pKd
Note on units: pKd is unitless, being -log10 of a concentration expressed in mol/L.

Reported pKd (SfurOBP2 (Sogatella furcifera)) for entry c1ccc(Nc2cccc3ccccc23)cc1 is 5.25

====

# SYSTEM NAME: SfurOBP2 (Sogatella furcifera, UniProt V5T759)
# Sequence (V5T759 entry or part of it): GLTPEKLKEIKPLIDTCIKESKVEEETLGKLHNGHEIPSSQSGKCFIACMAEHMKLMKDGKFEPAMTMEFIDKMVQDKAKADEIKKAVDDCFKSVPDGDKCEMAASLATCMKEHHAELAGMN
# ASSAY METHOD TEXT: biochemical
# Format: binding
# APPLIED CONDITIONS: ligand concentration 4 (unit not given), replicate column 1 of 3
ENDPOINT NAME: Fluorescence competitive binding assay, OBP2 (raw fluorescence reading)

COMPOUND: CCCCCCCC=O
READOUT VALUE: 18170

COMPOUND: OC1CCCCC1
READOUT VALUE: 17006

COMPOUND: C=CC(C)(O)CCC=C(C)CCC=C(C)C (mixture of isomers)
READOUT VALUE: 14875

COMPOUND: CC/C=C\CCO [(Z)-3-hexenol]
READOUT VALUE: 19551

COMPOUND: CCCCCCCCCCCCC=O
READOUT VALUE: 15250

COMPOUND: CCC/C=C/CO [(E)-2-hexenol]
READOUT VALUE: 17418

What the record says about C[C@@H]1CC[C@H]2C(C)(C)[C@H]3C[C@@]12CC[C@@]3(C)O : Fluorescence competitive binding assay, OBP2 (raw fluorescence reading) is 27085

Noted for COC(=O)c1ccccc1 : its Fluorescence competitive binding assay, OBP2 (raw fluorescence reading) reads 20922

Query C=C/C(C)=C/C/C=C(\C)CCC=C(C)C yields Fluorescence competitive binding assay, OBP2 (raw fluorescence reading) of 15758

Lab note: CCCCCCCCCCOCCCCCCCCCC gave Fluorescence competitive binding assay, OBP2 (raw fluorescence reading) of 24181

CCCCCCCCCCCCCCCCCC yielded Fluorescence competitive binding assay, OBP2 (raw fluorescence reading) of 22227

# compound CCCCCC=O ; its Fluorescence competitive binding assay, OBP2 (raw fluorescence reading) = 18968

====

# SYSTEM NAME: UniProt V5T6E3
# Sequence (V5T6E3 entry or part of it): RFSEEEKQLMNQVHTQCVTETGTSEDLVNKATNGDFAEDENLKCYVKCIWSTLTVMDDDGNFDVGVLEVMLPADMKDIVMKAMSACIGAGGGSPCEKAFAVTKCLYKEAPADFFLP
# ASSAY METHOD TEXT: biochemical
# Assay type: binding
# APPLIED CONDITIONS: ligand concentration 8, replicate 2
This section presents molecules with their documented Fluorescence intensity, fluorescence competitive binding assay, OBP11 values.

Before answering, review these 10 worked examples.
MOLECULE: CCCCCCCCCCC
SYSTEM NAME: UniProt V5T6E3
READOUT VALUE: 30771

MOLECULE: CCCCCCCC
SYSTEM NAME: UniProt V5T6E3
READOUT VALUE: 28064

MOLECULE: CCCCCCC=CCO
SYSTEM NAME: UniProt V5T6E3
READOUT VALUE: 34472

MOLECULE: CCCCCC=O
SYSTEM NAME: UniProt V5T6E3
READOUT VALUE: 25787

MOLECULE: CCCCCCCC=O
SYSTEM NAME: UniProt V5T6E3
READOUT VALUE: 28222

MOLECULE: CC(=O)c1ccccc1
SYSTEM NAME: UniProt V5T6E3
READOUT VALUE: 25714

MOLECULE: C/C(=C\CO)CCC[C@H](C)CCC[C@H](C)CCCC(C)C
SYSTEM NAME: UniProt V5T6E3
READOUT VALUE: 18342

MOLECULE: O=Cc1ccccc1
SYSTEM NAME: UniProt V5T6E3
READOUT VALUE: 23717

MOLECULE: CCCCCCCCCCCCCCCCCCC
SYSTEM NAME: UniProt V5T6E3
READOUT VALUE: 38320

MOLECULE: CCCCCCCCCCCCCC
SYSTEM NAME: UniProt V5T6E3
READOUT VALUE: 28884

Note to self: Fluorescence intensity, fluorescence competitive binding assay, OBP11 recorded for CCCCCCCCCCCCCCCC(=O)OC [MH(methyl hexadecanoate)] was 37383

Query CC(C)COC(=O)CCCCC(=O)OCC(C)C [DA(diisobutyl adipate)] yields Fluorescence intensity, fluorescence competitive binding assay, OBP11 of 23328

Quick note, Fluorescence intensity, fluorescence competitive binding assay, OBP11 for CCCCCCCCCCOCCCCCCCCCC landed at 53605

====

# SYSTEM NAME: UniProtKB V5T6E3
# ASSAY METHOD TEXT: biochemical
# Format: binding
# APPLIED CONDITIONS: ligand concentration 12, replicate 2
# Experimental: Thirty-six rice odorants ([He et al., 2014]; [Wang et al., 2017]) and 1-N-phenyl-naphthylamine (1-NPN) were purchased from Sigma-Aldrich (St Louis, MO, USA). […] Fluorescence competitive binding assays were performed on Tecan Spark 10M (Tecan Group Ltd., Männedorf, Switzerland) with the F96 Black ELIAS Plate (Sangon) ([Khuhro et al., 2017]; [Liu et al., 2017]). The solutions were excited at 337 nm and emission spectra were recorded between 390 and 490 nm. […]
Please note: Fluorescence intensity, fluorescence competitive binding assay, OBP11 exactly at 20000 is Not met. Only values below 20000 get Met.

STRUCTURE STRING: COC(=O)c1ccccc1
SYSTEM NAME: UniProtKB V5T6E3
ASSIGNED CLASS: Not met

STRUCTURE STRING: Cc1cc(C(C)(C)C)c(O)c(C(C)(C)C)c1
SYSTEM NAME: UniProtKB V5T6E3
ASSIGNED CLASS: Met

Task item: Fluorescence intensity, fluorescence competitive binding assay, OBP11 under 20000? Item: CCCCCCCCCCCCC=O
Reply: Not met

Task item: Is the reported Fluorescence intensity, fluorescence competitive binding assay, OBP11 for CC(=O)c1ccccc1 strictly below 20000?
Reply: Not met

Task item: Strictly below 20000: is that where Fluorescence intensity, fluorescence competitive binding assay, OBP11 of O=C(c1ccccc1)c1ccccc1 sits?
Reply: Met

Task item: API: query returns whether the molecule falls strictly under 20000 in Fluorescence intensity, fluorescence competitive binding assay, OBP11. Query: CCCCCCCCCCCCO
Reply: Not met

Task item: Item CCCCCCC=CCO : Fluorescence intensity, fluorescence competitive binding assay, OBP11 beneath 20000, strictly?
Reply: Not met

====

# SYSTEM NAME: UniProt V5T818
# Sequence (V5T818 entry or part of it): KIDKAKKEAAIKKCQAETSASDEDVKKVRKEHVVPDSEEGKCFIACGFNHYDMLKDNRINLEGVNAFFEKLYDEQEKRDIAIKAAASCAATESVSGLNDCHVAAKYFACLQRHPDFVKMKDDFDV
# ASSAY METHOD TEXT: biochemical
# Format: binding
pIC50: −log10 of the molar value.
ENDPOINT NAME: pIC50

The cases that follow already have their pIC50 on record.
COMPOUND: O=Cc1ccccc1
pIC50: < 4.70
--
COMPOUND: O=C(c1ccccc1)c1ccccc1
pIC50: < 4.70
--
COMPOUND: CCC/C=C/CO [(E)-2-hexenol]
pIC50: < 4.70
--
COMPOUND: C=CC(C)(O)CCC=C(C)C (stereo not shown)
pIC50: < 4.70
--
COMPOUND: CC1=CC[C@@H](C(C)(C)O)CC1
pIC50: 4.87
--
COMPOUND: Cc1ccc(C(C)C)cc1
pIC50: < 4.70

# compound OC1CCCCC1 ; its pIC50 = < 4.70

# pIC50 of C[C@@H]1CC[C@H]2C(C)(C)[C@H]3C[C@@]12CC[C@@]3(C)O = < 4.70

# compound CC(=O)/C=C/C1=C(C)CCCC1(C)C ; its pIC50 = 4.92

According to the records, this compound COC(=O)c1ccccc1 displays pIC50 of < 4.70

Input C=C1CC/C=C(\C)CC[C@@H]2[C@@H]1CC2(C)C . Output pIC50: < 4.70

Kindly note the recorded pIC50 for CC/C=C\CCO [(Z)-3-hexenol] , which is < 4.70

The reported value for c1ccc2ccccc2c1 in terms of pIC50 is < 4.70

====

# SYSTEM NAME: SfurOBP2 (Sogatella furcifera, UniProt V5T759)
# ASSAY METHOD TEXT: biochemical
# Format: binding
# APPLIED CONDITIONS: ligand concentration 8 (unit not given), replicate column 1 of 3
hey, just use Met if measured Fluorescence competitive binding assay, OBP2 (raw fluorescence reading) is less than 20000, otherwise Not met

COMPOUND: C=C(C)C1CC=C(C)CC1 (single isomer, unassigned; (+)) [(+)-limonene]
ASSIGNED CLASS: Met
//
COMPOUND: CCCCCCC=CCO
ASSIGNED CLASS: Not met
//
COMPOUND: OC1CCCCC1
ASSIGNED CLASS: Met
//
COMPOUND: CCCCCCCCCCCCCCCCCCC
ASSIGNED CLASS: Not met
//
COMPOUND: C=CC(C)(O)CCC=C(C)CCC=C(C)C (mixture of isomers)
ASSIGNED CLASS: Met
//
COMPOUND: CC(C)COC(=O)CCCCC(=O)OCC(C)C [DA(diisobutyl adipate)]
ASSIGNED CLASS: Met
//
COMPOUND: O=C(c1ccccc1)c1ccccc1
ASSIGNED CLASS: Met
//
COMPOUND: CCCCCCCCCCCCCCCCCC
ASSIGNED CLASS: Not met

Task item: Answer whether the compound CCCCCCCCC=O has Fluorescence competitive binding assay, OBP2 (raw fluorescence reading) strictly less than 20000
Reply: Not met
